Give measured Percent Effect for each item. Keep answers brief.
- subject.of.test: AMP-activated protein kinase, AMPK (Homo sapiens) (UniProt P54646+O43741+P54619+Q9UGJ0+Q9Y478+Q13131+Q9UGI9)
- assay.procedure: AMP-dependent Kinase enzyme assay. An in vitro enzyme assay that detects ADP turnover that is directly proportional to AMPK activity. This uses naive AMPK that is activated during the assay with MK-8722
- Type: functional
- Set-up: scale not given: direction of the effect not stated beside the values
- assay.conditions: 30 µM
Your answer is read as %, so omit the unit and give the number.

Please fill in: Percent Effect reported for `Cc1cc(C)n(Cc2ccc(C(=O)NCCN3CCOCC3)cc2)n1` = -0.277

Item: O=C1CCC2(CCCN(C(=O)c3cscn3)C2)CN1CCc1c[nH]cn1 (centres undefined) | Percent Effect: -3.24

Lab note: CC(C)c1nc(C2CCCN(C(=O)c3ccc4[nH]cnc4c3)C2)no1 (centres undefined) gave Percent Effect of -3.37

Item: `CC1(C)CN(C(=O)NCCc2ccn(-c3ccccc3)n2)CCO1` | Percent Effect: 8.97

// field: Percent Effect; key: Cc1cc(C)n(CC2CCCN2CCCS(=O)(=O)N(C)C)n1 (centres undefined) ; value = -6.22

The recorded Percent Effect for Cc1ccc(C(=O)NC(C)CN2CCCC2=O)c(=O)[nH]1 (centres undefined) is -5.61

Memo: `O=C(NCCNc1ncccn1)C1CCN(C(=O)C2CC2)CC1` , reported Percent Effect: 5.28

The reported Percent Effect of the compound `COc1ncc(-c2nccn2CCN(C)C)cn1` was -2.61

Summary for this compound, CCOc1ccccc1-c1noc(CN2CCCC(O)C2)n1 (centres undefined) : Percent Effect is -0.175

Percent Effect reported for this compound `CN(C)C(=O)N1CCN(Cc2nnc(C(C)(C)C)o2)CC1` : 0.51

The compound `CN(Cc1ccsc1)C(=O)Nc1ccc(S(C)(=O)=O)nc1` showed Percent Effect equal to -11.6

Lab note: OC(CN1CCN(Cc2ccc(F)cc2)CC1)C1CC1 (centres undefined) gave Percent Effect of -8.34

Entry `Cc1cc(C)n(-c2cncc(N3CCN(C(=O)C(C)(C)C)CC3)n2)n1` — recorded Percent Effect = 10.4

The compound listed as `CCS(=O)(=O)N1CCc2ccc(NC(=O)Nc3cccc(SC)c3)cc21` shows Percent Effect equal to 1.15

Percent Effect reported for this compound CCCS(=O)(=O)N1CCC2(CN(c3cnn(C)c3)C(=O)CN2C)C1 (centres undefined) : 5.11

Measured Percent Effect of Cc1cnn(CC2CCCN2Cc2nnc(Cc3ccccc3)o2)c1 (centres undefined) : -8.22

Documented Percent Effect of `CN1C(=O)C[C@@H]2[C@@H]1CCN2C(=O)c1ccc[nH]1` : 1.46

Percent Effect in this record for Cc1nn(-c2ccccc2)c2c1C(c1ccc(C(=O)O)cc1)CC(=O)N2 (centres undefined) : -3.15

# compound `COc1ccccc1CN1CC[C@H]2C[C@@H](C(=O)N3CCCC3)O[C@H]2C1` ; its Percent Effect = 4.84

The recorded Percent Effect for `Cc1cc(C(N)=O)ccc1NC(=O)c1nc(N2CCCC2)ncc1Cl` is -4.73

Per the records, this compound ( `CC(C)c1nnc2n1CCN(C(=O)c1ccc(OCC(N)=O)cc1)C2` ) has Percent Effect equal to -2.69

Consider `COc1cccc(CNc2c(C)cnc3c2c(=O)n(C)c(=O)n3C)c1` . Its measured Percent Effect is -3.93

Given item Cc1nc(C)n(CC2CCCN2CC(=O)NCCc2ccccc2)n1 (centres undefined) , the value recorded as its Percent Effect is 2.9

Record CNC(=O)C1(CCCc2cccnc2)CCCCN1 (centres undefined) , field Percent Effect: 5.4
